Assay: Solubility in water or ethanol, by absorbance at 260 nm
Assay type: physicochemical
Settings: organic solvent or mixture, thermodynamic from solid, ethanol, 23° C.
quantity-measured: solubility at 1 h (µg/mL)
Numbers only, in µg/mL.

Exam item: Value lookup for solubility at 1 h; key = N=C(N)NCCCc1nc2c(=O)c3cc(C(=O)O)[nH]c3c3c(C(=O)O)cc(C(=O)O)n1c23 [Example 1, argIPQ disodium trihydrate]
Marked response: 400

* * *

Assay: Solubility in water or ethanol, by absorbance at 260 nm
Assay type: physicochemical
Details: thermodynamic from solid, water, 23° C.
quantity-measured: solubility at 1 h (mg/mL)
Answers are plain numbers, in mg/mL.

Exam item: Please report the recorded solubility at 1 h for N=C(N)NCCCc1nc2c(=O)c3cc(C(=O)O)[nH]c3c3c(C(=O)O)cc(C(=O)O)n1c23 [Example 1, argIPQ disodium trihydrate] .
Marked response: 37
